// reported pKd for each item listed
Biological target: T1, PUF4 RNA-binding domain (Saccharomyces cerevisiae, UniProt P25339 537-888)
T1 sequence: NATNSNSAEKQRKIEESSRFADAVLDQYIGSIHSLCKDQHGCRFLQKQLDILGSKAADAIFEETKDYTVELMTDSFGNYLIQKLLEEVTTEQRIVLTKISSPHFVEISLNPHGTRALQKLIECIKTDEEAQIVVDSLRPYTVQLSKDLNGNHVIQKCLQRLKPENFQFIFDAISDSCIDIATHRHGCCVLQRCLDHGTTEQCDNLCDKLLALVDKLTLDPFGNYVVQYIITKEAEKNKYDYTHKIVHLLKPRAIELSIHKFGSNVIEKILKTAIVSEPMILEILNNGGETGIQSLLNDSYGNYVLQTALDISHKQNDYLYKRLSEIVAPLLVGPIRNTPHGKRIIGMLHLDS
Assay: Mg; RNA-MaP; 20 mM Na-HEPES pH 7.4, 30 mM KOAc, 0.75 mM MgCl2, 0.1% Tween-20, 5% glycerol, 0.1 mg/mL BSA, 2 mM DTT; 25 C; 0.0125-409.6 nM protein
Settings: tags: N-His6-TEV cleaved; C-SNAP kept, Cy3B-labelled; label: tethered on chip by stalled RNA polymerase
Answer as the number alone; pKd is minus log10 of concentration in mol/L.

As a guide, the following entries are already answered.
Binder: UCUCUUUAUGUAUAUAACUCUCUU (ssRNA) [Id_ii_S1_P3E.2_K3.1_C3.2_[C-2T]_[T-1A]_H3.1_A3.1_F3.1_T3.2_[T9A]_[A10C]]
pKd: 7.89
//
Binder: UCUCUUUCUGUAUAUAUAUCUCUU (ssRNA) [Id_ii_S1_P3E.2_K3.1_C3.2_[C-2T]_[T-1C]_H3.1_A3.1_F3.1_T3.2]
pKd: 8.48
//
Binder: UCUCUUUUUAUAUAUAUAUCUCUU (ssRNA) [Id_ii_S1_P3E.3_K3.2_C3.2_[C-2T]_H3.2_A3.1_F3.1_T3.2]
pKd: 6.29
//
Binder: Ie_S2_P5E.1_K5.1_C5.1_H5.1_[+1TTT]_A5.1_F5.1_T5.1 (ssRNA) RNA: UUUGAUUAAUAUGAUAUCGUUCUUUCUUUUUGUAUUAUUAUUCUUUCUCGAUAUCAUAUUAAUCUUU
pKd: 8.80
//
Binder: Id_ii_S4_P3E.2_K3.1_C3.2_[C-2T]_[T-1A]_H3.1_A3.1_F3.1_T3.2_[T9G]_[A10C] (ssRNA) RNA: UUUGACAACUGAUCGUUCUUUCUUAUGUAUAUAGCUUCUUUCUCGAUCAGUUGUCUUU
pKd: 8.22

Value of pKd reported for the binder Ic_S2_P4E.1_K4.1_C4.1_H4.1_A4.1_[T5A]_[A6C]_[T7A]_F4.1_[A9C]_T4.1 (ssRNA) RNA: UUUGAUUAAUAUGAUAUCGUUCUUUCUUGUAACAUCUUCUUUCUCGAUAUCAUAUUAAUCUUU is 7.80

Reference for the values: paper PMC9352680
